- tested-on: T1, FGFR2 JM-KD, phosphorylation state pY2 (UniProt P21802-3 414-764, Y467F (worked out from the printed order of phosphorylation) | Y589F (worked …, phosphotyrosine at 657 and 587))
- T1 construct: numbers count on: FGFR2IIIb (C1 isoform, 822 residues); also called JM-KD^pY2; source: E. coli BL21(DE3), purified (Talon, Superdex 75)
- protocol-summary: SPR; untagged CT immobilised on a CM4 chip by amine coupling (about 200 RU); JM-KD proteins of different phosphorylation level injected at 30 µl/min, then buffer wash; steady-state fitting
- run-parameters: both partners purified
metric: pKd
Give only the number. pKd is defined as minus log10 of concentration in molar units.

Tell me the measured pKd of FGFR2 C-terminal tail of the C1 isoform, untagged (the last 58 residues of FGFR2) (domain or fragment, UniProt P21802-3 765-822, looked up, FGFR2 (IIIb, C1 isoform) C-terminal tail, the last 58 residues of FGFR2; numbers count on: FGFR2IIIb (C1 isoform, 822 residues); Unlabelled form: immobilised by amine coupling in SPR; added as 'CT' in the steady-state FRET; also called CT^C1; source: E. coli BL21(DE3), purified as GST fusion, GST removed with thrombin) TTNEEYLDLSQPLEQYSPSYPDTRSSCSSGDDSVFSPDPMPYEPCLPQYPHINGSVKT , please.
5.39

Source of measurements: paper PMC10349056
